Source listed as PubChem BioAssay AID588689.

Recorded inhibition for the following compounds
- MEASUREMENT_TARGET: Genome polyprotein (Dengue virus type 2 (strain 16681-PDK53)) (UniProt P29991)
- PROTOCOL_NOTES: flavivirus cap methylation enzyme inhibition – biochemical, confirmation dose response, primary screen (AID 588689)
- CONDITIONS_USED: Dengue-2 NS5 methyltransferase capping enzyme assay, at 25 µM, stronger effect = higher value
About 1,000 (0.29%) of roughly 340,000 compounds were called active. The list is a sample of the results. Entries with a potency or affinity are not part of this list.
Write the answer as a number in %, unit excluded.

Solved entries:
COMPOUND | inhibition / %
Cc1[nH]n(-c2ccccc2)c(=O)c1C(c1ccccc1C(=O)O)c1c(C)[nH]n(-c2ccccc2)c1=O | -2.59
Cc1ccc(C(C[N+](=O)[O-])c2c(C)[nH]n(-c3ccccc3)c2=O)cc1 (stereo not given) | 12.3
Cc1[nH]n(-c2ccccc2)c(=O)c1N=Nc1ccccc1O | -2.22
CC(C)c1ccc(S(=O)(=O)c2nnn3c2nc(NCC2CCCO2)c2ccccc23)cc1 (stereo not given) | 0

Now examine the next entry.
Given COc1ccc(-c2nc(-c3ccccn3)no2)cc1 , state its recorded inhibition.
-2.71

---

Recorded inhibition for the following compounds
- MEASUREMENT_TARGET: Genome polyprotein (Dengue virus type 2 (strain 16681-PDK53))
- PROTOCOL_NOTES: flavivirus cap methylation enzyme inhibition – biochemical, confirmation dose response, primary screen (AID 588689)
- CONDITIONS_USED: Dengue-2 NS5 methyltransferase capping enzyme assay, at 25 µM, stronger effect = higher value
Among all 340,000 compounds or so, about 1,000 (0.29%) were called active. A selection follows. Measured potencies and affinities stand elsewhere.
Write the answer as a number in %, unit excluded.

Given COc1ccc(S(=O)(=O)N2CCN(C(=O)Cc3cccs3)CC2)cc1 , state its recorded inhibition.
-2.65

Given Cc1ccccc1N1C(=O)C(Cl)=C(N2CCCCCC2)C1=O , state its recorded inhibition.
-0.78

Given Cc1ccc(NC(=O)c2ccc(S(=O)(=O)Nc3c(C)n(C)n(-c4ccccc4)c3=O)cc2)nc1 , state its recorded inhibition.
-5.09

Given Cc1ccccc1NC(=O)c1cccc(N2C(=O)C3CCCCC3C2=O)c1 (stereo unspecified) , state its recorded inhibition.
-9.97

Given O=c1cc(O)c2ccc(O)cc2o1 , state its recorded inhibition.
0

---

- MEASUREMENT_TARGET: Genome polyprotein (Dengue virus type 2 (strain 16681-PDK53)) (UniProt P29991)
- PROTOCOL_NOTES: flavivirus cap methylation enzyme inhibition – biochemical, confirmation dose response, primary screen (AID 588689)
- CONDITIONS_USED: Dengue-2 NS5 methyltransferase capping enzyme assay, at 25 µM, stronger effect = higher value
The whole screen tested about 340,000 compounds, of which about 1,000 (0.29%) were called active. Only a sample is shown. Results with a measured potency or affinity are listed apart.
OBSERVATION_TYPE: inhibition (%)
Write the answer as a number in %, unit excluded.

Solved entries:
COMPOUND | inhibition / %
CCCCSc1nc(O)c(C2OC(=O)c3c2ccc(OC)c3OC)c(=O)n1C (stereo not given) | -5.49
Cc1c(C(=O)OCC(=O)N2CC(=O)Nc3ccccc32)oc2ccc(Br)cc12 | -0.83
COc1cc(C(=O)Nc2scc(-c3ccccc3)c2C(=O)O)cc(OC)c1OC | 14.7
COc1cc(C(NC(C)=O)NC(C)=O)ccc1OCc1ccccc1 | -12.5
Cc1ccc(S(=O)(=O)N2[C@@H](c3cccc(Cl)c3)C(C(=O)O)=CC[C@H]2c2ccc(Cl)cc2)cc1 | 20.7
COc1cc2c(cc1OC)C(c1cccs1)N(C(=S)NC(C)C)CC2 (stereo not given) | -5.35
CCCc1cc(=O)oc2cc(C)cc(OC(C)C(=O)NCc3cccnc3)c12 (stereo not given) | -9.54
Cc1[nH]c2ccccc2c1SCC(=O)O | -8.76

Given CCCCSc1n[nH]c(N)n1 , state its recorded inhibition.
-2.73

Given CSc1ncccc1C(=O)OCc1cccc([N+](=O)[O-])c1 , state its recorded inhibition.
0

Given Cc1ccc(NC2=CC(=O)C(=O)c3ccccc32)cc1 , state its recorded inhibition.
54.8

Given Cc1ccc(S(=O)(=O)N2CCN(S(=O)(=O)N3CCOCC3)CC2)cc1C , state its recorded inhibition.
2.05

Given COc1ccc(N2CCN(C3CCCN(C(=O)CN4CCCC4=O)C3)CC2)cc1 (stereo not given) , state its recorded inhibition.
-4.52

Given Cc1ccccc1C(=O)NCCNC(=O)c1ccccn1 , state its recorded inhibition.
4.99

Given O=C(O)CSc1nc(-c2ccccc2)nc2c1oc1ccccc12 , state its recorded inhibition.
5.73

Given CCSc1nc(O)c(C2OC(=O)c3c2ccc(OC)c3OC)c(=O)n1CC (stereo not given) , state its recorded inhibition.
6.79

Given CC(C)CC(NC(=O)C(NC(=O)OC(C)(C)C)C(C)C)C(=O)N1CCCC1C(N)=O (stereo not given) , state its recorded inhibition.
-8.35

Given O=Cc1ccc(F)c([B-](F)(F)F)c1 , state its recorded inhibition.
-5.86

Given Cc1ccccc1C(=O)Nc1scc(-c2ccc(Br)cc2)c1C(=O)O , state its recorded inhibition.
22.5

Given O=C(N/C(=C\c1cccnc1)C(=O)N1CCC(O)CC1)c1ccccc1 , state its recorded inhibition.
-1.67

Given COc1cc(CC(=O)O)ccc1OCc1ccccc1 , state its recorded inhibition.
-5.48
